Target: G-CSFR (Homo sapiens, UniProt Q99062)
Sequence (Q99062 25-836): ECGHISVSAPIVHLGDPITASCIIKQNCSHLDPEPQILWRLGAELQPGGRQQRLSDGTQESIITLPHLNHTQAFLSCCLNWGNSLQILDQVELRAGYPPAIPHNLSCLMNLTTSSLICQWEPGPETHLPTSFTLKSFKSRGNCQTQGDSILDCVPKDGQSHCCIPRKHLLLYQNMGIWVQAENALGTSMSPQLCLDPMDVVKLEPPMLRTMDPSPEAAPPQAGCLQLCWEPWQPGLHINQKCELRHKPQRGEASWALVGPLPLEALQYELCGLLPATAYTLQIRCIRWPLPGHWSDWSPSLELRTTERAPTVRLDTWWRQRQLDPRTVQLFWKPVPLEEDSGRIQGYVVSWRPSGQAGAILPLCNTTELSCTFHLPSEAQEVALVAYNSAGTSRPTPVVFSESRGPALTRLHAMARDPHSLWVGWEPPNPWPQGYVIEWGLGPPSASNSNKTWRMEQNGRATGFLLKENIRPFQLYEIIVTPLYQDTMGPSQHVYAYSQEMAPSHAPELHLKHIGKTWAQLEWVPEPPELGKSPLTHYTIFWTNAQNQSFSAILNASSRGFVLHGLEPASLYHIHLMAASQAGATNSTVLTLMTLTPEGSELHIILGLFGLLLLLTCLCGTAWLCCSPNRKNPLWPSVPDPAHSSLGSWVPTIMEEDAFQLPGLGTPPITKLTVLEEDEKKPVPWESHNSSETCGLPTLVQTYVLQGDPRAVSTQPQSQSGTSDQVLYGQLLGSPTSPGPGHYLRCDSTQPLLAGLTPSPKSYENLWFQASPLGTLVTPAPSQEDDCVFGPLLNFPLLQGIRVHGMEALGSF
Assay: G-CSF competition binding assay (125I labeled G-CSF, immobilized G-CSFR in microtiter wells)
Parameters: made in house
Settings: reduction of bound 125I labeled G-CSF; overnight at 4° C.
measured property: Competitive Binding?

The examples below pair each entry with its known result.
seq	result
CHANPVWGEC [Example 9]	No
CACMLRVVHC [Example 14]	Yes
CSFVQLNSIC [Example 5]	Yes
CETLCGACFC [Example 15]	No
CADEVMHFCC [Example 3]	Yes
CAGEVMHMCC [Example 1]	Yes

Prompt: // returns reported Competitive Binding? for input CDVWQLFDRC [Example 4]
Response: Yes

Prompt: // returns reported Competitive Binding? for input CFWSDWGQTC [Example 11]
Response: No

###

Biological target: G-CSFR (Homo sapiens)
Construct: incubation with soluble G-CSFR harvest; made in house
Sequence (Q99062 25-627): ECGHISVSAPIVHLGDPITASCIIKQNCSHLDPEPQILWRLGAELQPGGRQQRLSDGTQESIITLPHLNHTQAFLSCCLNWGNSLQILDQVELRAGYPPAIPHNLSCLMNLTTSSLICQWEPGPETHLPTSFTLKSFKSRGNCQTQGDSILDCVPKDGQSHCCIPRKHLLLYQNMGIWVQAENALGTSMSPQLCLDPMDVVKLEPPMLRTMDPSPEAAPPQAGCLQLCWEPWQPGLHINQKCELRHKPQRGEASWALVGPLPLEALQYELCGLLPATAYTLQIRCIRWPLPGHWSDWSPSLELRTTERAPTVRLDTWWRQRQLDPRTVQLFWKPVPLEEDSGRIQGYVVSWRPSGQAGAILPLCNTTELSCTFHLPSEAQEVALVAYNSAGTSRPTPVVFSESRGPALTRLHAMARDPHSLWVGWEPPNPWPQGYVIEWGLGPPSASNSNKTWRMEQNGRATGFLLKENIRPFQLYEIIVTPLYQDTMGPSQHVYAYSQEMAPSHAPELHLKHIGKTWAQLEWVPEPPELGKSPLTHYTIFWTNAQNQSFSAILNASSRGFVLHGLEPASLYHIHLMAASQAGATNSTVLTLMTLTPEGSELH
Experiment: Specific binding of peptides to G-CSFR
Details: total minus non-specific binding; unlabeled ligand typically G-CSF variant CS17
measured property: Specific Binding?

The examples below pair each entry with its known result.
seq	Specific Binding?
CDPWMFYDLC [Example 7]	Yes
CVPWMFYDLC [Example 6]	Yes
CPDWYQSYMC [Example 12]	Yes
CAGEVMHMCC [Example 1]	Yes
CHANPVWGEC [Example 9]	No
CNREIEAMCC [Example 2]	Yes
CQRAGYMLAC [Example 8]	No
CACMLRVVHC [Example 14]	Yes
CPHWTSYYMC [Example 13]	Yes
CDVWQLFDRC [Example 4]	Yes

Prompt: // returns reported Specific Binding? for input CADEVMHFCC [Example 3]
Response: Yes

Prompt: // returns reported Specific Binding? for input CSFVQLNSIC [Example 5]
Response: Yes

Prompt: // returns reported Specific Binding? for input CFWSDWGQTC [Example 11]
Response: No

Prompt: // returns reported Specific Binding? for input CETLCGACFC [Example 15]
Response: No

Source of measurements: patent US6716811B1
